system: NCI-H1092 (Small Cell Lung Carcinoma); experiment: Bliss excess, mean over the matrix (fraction); higher = more synergy;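 note: after 72 h of two-drug dosing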
EXPERIMENTAL ENDPOINT: Bliss excess
Give the figure by itself; no unit, no explanation.

{"COMPOUND": "CC1(C)CCC(CN2CCN(c3ccc(C(=O)NS(=O)(=O)c4ccc(NCC5CCOCC5)c([N+](=O)[O-])c4)c(Oc4cnc5[nH]ccc5c4)c3)CC2)=C(c2ccc(Cl)cc2)C1 [Venetoclax] + C[C@@H]1COCCN1C2=NC(=NC(=C2)C3(CC3)[S@](=N)(=O)C)C4=C5C=CNC5=NC=C4 [AZD6738] (first compound max 1 µM, 7x7, partner max 10 µM)", "Bliss excess": 0.0739}

The record that follows has no Bliss excess shown yet.
# Bliss excess lookup, item C[C@@H](c1ccc2nccn2c1)n1nnc2ncc(-c3cnn(C)c3)nc21 [Savolitinib] + CN(CC[C@H](CSC1=CC=CC=C1)NC2=C(C=C(C=C2)S(=O)(=O)NC(=O)C3=CC=C(C=C3)N4CCC(CC4)[C@H](C5=CC=CC=C5C6=CC=C(C=C6)Cl)O)S(=O)(=O)C(F)(F)F)CCO [AZD4320] (first compound max 1 µM, 7x7, partner max 1 µM)
-0.0878
